Data credit: PubChem BioAssay AID488969

Target: Metabotropic glutamate receptor 8 (Rattus norvegicus)
Test: mGluR8 Gi/Go-coupled signaling modulation – cell-based, rat, thallium flux, HTS, primary screen (AID 488969)
Conditions: HEK293 rat mGluR8, GIRK (G protein-gated inwardly rectifying potassium channel) thallium flux, FluoZin2; at 10 µM; stronger effect = higher value; submaximal glutamate (EC20) added with thallium
Whole data set: some 110,000 compounds, median “z-score” near -0.1, cut for the highest 2% near 2. Shown is part of a subset that was picked to be rich in the highest values.
If the reported z-score equals or exceeds 0.3, assign Fulfilled. If not, assign Not fulfilled.

Examples with answers:
In [3]: df
Out[3]:
                            compound_smiles                               test_target     class_name
0  Cc1cccc(C(=O)NNC(=O)c2ccc(-c3ccccc3)cc2)c1  Metabotropic glutamate receptor 8 (Rattus norvegicus)  Not fulfilled
1  Cc1ccc(C(=O)NNC(=S)NC(=O)c2ccc(Cl)cc2)cc1  Metabotropic glutamate receptor 8 (Rattus norvegicus)      Fulfilled
2        O=C(NNC(=O)c1ccc(Cl)cc1Cl)c1ccncc1  Metabotropic glutamate receptor 8 (Rattus norvegicus)      Fulfilled
3         O=C(CN1CCOCC1)Nc1ccc(C2CCCCC2)cc1  Metabotropic glutamate receptor 8 (Rattus norvegicus)      Fulfilled
4              COC(=O)NNC(=O)c1ccc(Cl)cc1Cl  Metabotropic glutamate receptor 8 (Rattus norvegicus)  Not fulfilled
5  O=C(Nc1ccccc1)c1ccc(OC(=O)c2cc3ccccc3o2)cc1  Metabotropic glutamate receptor 8 (Rattus norvegicus)  Not fulfilled
6  Cc1ccc(C(=O)NC(=S)NNS(=O)(=O)c2ccc(C)cc2)cc1  Metabotropic glutamate receptor 8 (Rattus norvegicus)  Not fulfilled
7        O=C(CN1CCOCC1)Nc1ccc(Oc2ccccc2)cc1  Metabotropic glutamate receptor 8 (Rattus norvegicus)      Fulfilled

Exercise: For this compound, is measured z-score 0.3 or higher? O=C(NNC(=S)NC(=O)c1cccnc1)c1ccc(Cl)cc1
Solution: Not fulfilled

Exercise: For this compound, is measured z-score 0.3 or higher? CC(=O)Cc1nsc(NC(=O)c2cc(-c3ccc(Cl)c(Cl)c3)oc2C)n1
Solution: Not fulfilled

Exercise: For this compound, is measured z-score 0.3 or higher? O=C(CN1CCN(C(=S)NC2CCCC2)CC1)Nc1ccc(Oc2ccccc2)cc1
Solution: Not fulfilled
